This collection of values is drawn from ChEMBL document CHEMBL2434843.

# System: Mycobacterium tuberculosis
# experimental protocol: Antitubercular activity against Mycobacterium tuberculosis H37Rv assessed as growth inhibition after 21 days by micro-broth dilution method
# Format: functional
# assay setup: 504 h
measured endpoint: MIC (µM)
Give a bare numeral; the unit µM is implied.

Solved cases below.
- molecule smiles: "O=C(C(=O)c1ccc(Cl)cc1Cl)c1cn(C2CCCCC2)nn1"
  units symbol: "µM"
  MIC: 43.7
- molecule smiles: "CCCCCCCCn1cc(C(=O)C(=O)c2ccc(Cl)cc2Cl)nn1"
  units symbol: "µM"
  MIC: 80.7
- molecule smiles: "COc1ccc(C(=O)C(=O)c2cn(Cc3ccccc3)nn2)cc1"
  units symbol: "µM"
  MIC: 7.6
- molecule smiles: "COc1cc(Cn2cc(C(=O)C(=O)c3ccccc3)nn2)cc(OC)c1"
  units symbol: "µM"
  MIC: 11.4
- molecule smiles: "O=C(C(=O)c1ccc(Cl)cc1Cl)c1cn(Cc2ccc([N+](=O)[O-])cc2)nn1"
  units symbol: "µM"
  MIC: 79

The compound identified as `COc1cc(Cn2cc(C(=O)C(=O)c3ccc(Cl)cc3Cl)nn2)cc(OC)c1` registered its MIC at 9.51

The compound identified as `CCCCCCCCn1cc(C(=O)C(=O)c2ccccc2)nn1` registered its MIC at 51
